assay: Antiproliferative activity against human COLO205 cells after 72 hrs by Celltiter-Glo luminescent cell viability assay; format: functional, cell-based; conditions: COLO 205, 72 h
pIC50: −log10 of the molar value. Non-standard residues stand in square brackets, D forms with d. Residues, ends and D or L forms follow the SMILES beside them. Ac6c = NC1(C(=O)O)CCCCC1; Ac5c = NC1(C(=O)O)CCCC1
Provide the reported pIC50 of each item.

Name the recorded pIC50 for CC(=O)NCC(=O)N[C@@H](Cc1ccccc1)C(=O)NC1(C(=O)NCC(=O)N2Cc3ccccc3CC2C(=O)N[C@H](CCCCN)C(=O)NC2(C(=O)NCC(=O)N3Cc4ccccc4CC3C(=O)N[C@H](Cc3ccccc3)C(=O)NC3(C(=O)NCC(=O)N4Cc5ccccc5CC4C(=O)NCC(=O)N[C@H](CCCCN)C(=O)N4Cc5ccccc5CC4C(=O)N[C@H](CCCCN)C(=O)N[C@H](CCCCN)C(=O)N[C@H](CCCCN)C(=O)N[C@H](CCCCN)C(N)=O)CCCCC3)CCCCC2)CCCCC1 (stereo partly drawn) .
< 5.12

Name the recorded pIC50 for CC(=O)NCC(=O)N[C@@H](Cc1ccccc1)C(=O)NC1(C(=O)NCC(=O)NC2(C(=O)N[C@@H](CCCCN)C(=O)NC3(C(=O)NCC(=O)NC4(C(=O)N[C@@H](Cc5ccccc5)C(=O)NC5(C(=O)NCC(=O)NC6(C(=O)NCC(=O)N[C@@H](CCCCN)C(=O)NC7(C(=O)N[C@@H](CCCCN)C(=O)N[C@@H](CCCCN)C(=O)N[C@@H](CCCCN)C(=O)N[C@@H](CCCCN)C(N)=O)CCCC7)CCCC6)CCCC5)CCCC4)CCCC3)CCCC2)CCCC1 (Ac-GF[Ac5c]G[Ac5c]K[Ac5c]G[Ac5c]F[Ac5c]G[Ac5c]GK[Ac5c]KKKK-NH2) .
< 5.12

Name the recorded pIC50 for CC(=O)NCC(=O)N[C@@H](Cc1ccccc1)C(=O)NC1(C(=O)NCC(=O)NC2(C(=O)N[C@@H](CCCCN)C(=O)NC3(C(=O)NCC(=O)NC4(C(=O)N[C@@H](Cc5ccccc5)C(=O)NC5(C(=O)NCC(=O)NC6(C(=O)NCC(=O)N[C@@H](CCCCN)C(=O)NC7(C(=O)N[C@@H](CCCCN)C(=O)N[C@@H](CCCCN)C(=O)N[C@@H](CCCCN)C(=O)N[C@@H](CCCCN)C(N)=O)CCCC7)CCCCC6)CCCC5)CCCCC4)CCCC3)CCCCC2)CCCC1 (Ac-GF[Ac5c]G[Ac6c]K[Ac5c]G[Ac6c]F[Ac5c]G[Ac6c]GK[Ac5c]KKKK-NH2) .
< 5.12

* * *

assay: Antiproliferative activity against human PC3 cells after 72 hrs by Celltiter-Glo luminescent cell viability assay; format: functional, cell-based; conditions: PC-3, 72 h
pIC50: −log10 of the molar value. Non-standard residues stand in square brackets, D forms with d. Residues, ends and D or L forms follow the SMILES beside them. ξ: configuration not given here. Ac6c = NC1(C(=O)O)CCCCC1; ξDab = NCCC(N)C(=O)O
Provide the reported pIC50 of each item.

Name the recorded pIC50 for CC(=O)NCC(=O)N[C@@H](Cc1ccccc1)C(=O)NC1(C(=O)NCC(=O)NC2(C(=O)NC(CCN)C(=O)NC3(C(=O)NCC(=O)NC4(C(=O)N[C@@H](Cc5ccccc5)C(=O)NC5(C(=O)NCC(=O)NC6(C(=O)NCC(=O)NC(CCN)C(=O)NC7(C(=O)NC(CCN)C(=O)NC(CCN)C(=O)NC(CCN)C(=O)NC(CCN)C(N)=O)CCCCC7)CCCCC6)CCCCC5)CCCCC4)CCCCC3)CCCCC2)CCCCC1 (stereo partly drawn) (Ac-GF[Ac6c]G[Ac6c][ξDab][Ac6c]G[Ac6c]F[Ac6c]G[Ac6c]G[ξDab][Ac6c][ξDab][ξDab][ξDab][ξDab]-NH2) .
5.19

Name the recorded pIC50 for CC(=O)N[C@@H](CCCCN)C(=O)N[C@@H](CCCCN)C(=O)N[C@@H](CCCCN)C(=O)N[C@@H](CCCCN)C(=O)NCC(=O)N[C@@H](Cc1ccccc1)C(=O)NC1(C(=O)NCC(=O)NC2(C(=O)N[C@@H](CCCCN)C(=O)NC3(C(=O)NCC(=O)NC4(C(=O)N[C@@H](Cc5ccccc5)C(=O)NC5(C(=O)NCC(=O)NC6(C(=O)NCC(=O)N[C@@H](CCCCN)C(=O)NC7(C(N)=O)CCCCC7)CCCCC6)CCCCC5)CCCCC4)CCCCC3)CCCCC2)CCCCC1 (Ac-KKKKGF[Ac6c]G[Ac6c]K[Ac6c]G[Ac6c]F[Ac6c]G[Ac6c]GK[Ac6c]-NH2) .
< 5.12

Name the recorded pIC50 for CC(=O)NCC(=O)N[C@@H](Cc1ccccc1)C(=O)NC1(C(=O)NCC(=O)N2Cc3ccccc3CC2C(=O)N[C@H](CCCCN)C(=O)NC2(C(=O)NCC(=O)N3Cc4ccccc4CC3C(=O)N[C@H](Cc3ccccc3)C(=O)NC3(C(=O)NCC(=O)N4Cc5ccccc5CC4C(=O)NCC(=O)N[C@H](CCCCN)C(=O)N4Cc5ccccc5CC4C(=O)N[C@H](CCCCN)C(=O)N[C@H](CCCCN)C(=O)N[C@H](CCCCN)C(=O)N[C@H](CCCCN)C(N)=O)CCCCC3)CCCCC2)CCCCC1 (stereo partly drawn) .
< 5.12

* * *

assay: Antiproliferative activity against human MIAPaCa2 cells after 72 hrs by Celltiter-Glo luminescent cell viability assay; format: functional, cell-based; settings: MIA PaCa-2, 72 h
Non-standard residues stand in square brackets, D forms with d. Residues, ends and D or L forms follow the SMILES beside them. ξ: configuration not given here. Ac6c = NC1(C(=O)O)CCCCC1; Ac5c = NC1(C(=O)O)CCCC1; ξOrn = NCCCC(N)C(=O)O
Provide the reported IC50 of each item.

Name the recorded IC50 for CC(=O)NCC(=O)N[C@@H](Cc1ccccc1)C(=O)NC1(C(=O)NCC(=O)NC2(C(=O)NC(CCCN)C(=O)NC3(C(=O)NCC(=O)NC4(C(=O)N[C@@H](Cc5ccccc5)C(=O)NC5(C(=O)NCC(=O)NC6(C(=O)NCC(=O)NC(CCCN)C(=O)NC7(C(=O)NC(CCCN)C(=O)NC(CCCN)C(=O)NC(CCCN)C(=O)NC(CCCN)C(N)=O)CCCCC7)CCCCC6)CCCCC5)CCCCC4)CCCCC3)CCCCC2)CCCCC1 (stereo partly drawn) (Ac-GF[Ac6c]G[Ac6c][ξOrn][Ac6c]G[Ac6c]F[Ac6c]G[Ac6c]G[ξOrn][Ac6c][ξOrn][ξOrn][ξOrn][ξOrn]-NH2) .
3.6 µM

Name the recorded IC50 for CC(=O)NCC(=O)N[C@@H](Cc1ccccc1)C(=O)NC1(C(=O)NCC(=O)NC2(C(=O)N[C@@H](CCCCN)C(=O)NC3(C(=O)NCC(=O)NC4(C(=O)N[C@@H](Cc5ccccc5)C(=O)NC5(C(=O)NCC(=O)NC6(C(=O)NCC(=O)N[C@@H](CCCCN)C(=O)NC7(C(=O)N[C@@H](CCCCN)C(=O)N[C@@H](CCCCN)C(=O)N[C@@H](CCCCN)C(=O)N[C@@H](CCCCN)C(N)=O)CCCC7)CCCC6)CCCC5)CCCC4)CCCC3)CCCC2)CCCC1 (Ac-GF[Ac5c]G[Ac5c]K[Ac5c]G[Ac5c]F[Ac5c]G[Ac5c]GK[Ac5c]KKKK-NH2) .
> 7.5 µM

Name the recorded IC50 for CC(=O)NCC(=O)N[C@H](Cc1ccccc1)C(=O)NC1(C(=O)NCC(=O)N2C(C(=O)N[C@@H](CCCCN)C(=O)NC3(C(=O)NCC(=O)N4C(C(=O)N[C@@H](Cc5ccccc5)C(=O)NC5(C(=O)NCC(=O)N6C(C(=O)NCC(=O)N[C@@H](CCCCN)C(=O)N7C(C(=O)N[C@H](CCCCN)C(=O)N[C@H](CCCCN)C(=O)N[C@H](CCCCN)C(=O)N[C@H](CCCCN)C(N)=O)CC8CCCCC87)CC7CCCCC76)CCCCC5)CC5CCCCC54)CCCCC3)CC3CCCCC32)CCCCC1 (stereo in doubt) .
> 7.5 µM

* * *

system: Burkholderia pseudomallei; experiment: Antibacterial activity against Burkholderia pseudomallei AHS 1 NCTC 8016 by two fold serial dilution method; format: functional
Non-standard residues stand in square brackets, D forms with d. Residues, ends and D or L forms follow the SMILES beside them. ξ: configuration not given here. Ac6c = NC1(C(=O)O)CCCCC1; Ac5c = NC1(C(=O)O)CCCC1; ξOrn = NCCCC(N)C(=O)O
measured-metric: MIC

Write down the reported MIC of CC(=O)NCC(=O)N[C@@H](Cc1ccccc1)C(=O)NC1(C(=O)NCC(=O)N2Cc3ccccc3CC2C(=O)N[C@H](CCCCN)C(=O)NC2(C(=O)NCC(=O)N3Cc4ccccc4CC3C(=O)N[C@H](Cc3ccccc3)C(=O)NC3(C(=O)NCC(=O)N4Cc5ccccc5CC4C(=O)NCC(=O)N[C@H](CCCCN)C(=O)N4Cc5ccccc5CC4C(=O)N[C@H](CCCCN)C(=O)N[C@H](CCCCN)C(=O)N[C@H](CCCCN)C(=O)N[C@H](CCCCN)C(N)=O)CCCCC3)CCCCC2)CCCCC1 (some centres undefined) , test system: Burkholderia pseudomallei.
> 43 µM

Write down the reported MIC of CC(=O)NCC(=O)N[C@H](Cc1ccccc1)C(=O)NC1(C(=O)NCC(=O)N2C(C(=O)N[C@@H](CCCCN)C(=O)NC3(C(=O)NCC(=O)N4C(C(=O)N[C@@H](Cc5ccccc5)C(=O)NC5(C(=O)NCC(=O)N6C(C(=O)NCC(=O)N[C@@H](CCCCN)C(=O)N7C(C(=O)N[C@H](CCCCN)C(=O)N[C@H](CCCCN)C(=O)N[C@H](CCCCN)C(=O)N[C@H](CCCCN)C(N)=O)CC8CCCCC87)CC7CCCCC76)CCCCC5)CC5CCCCC54)CCCCC3)CC3CCCCC32)CCCCC1 (stereo in doubt) , test system: Burkholderia pseudomallei.
> 42 µM

Write down the reported MIC of CC(=O)NCC(=O)N[C@@H](Cc1ccccc1)C(=O)NC1(C(=O)NCC(=O)NC2(C(=O)N[C@@H](CCCCN)C(=O)NC3(C(=O)NCC(=O)NC4(C(=O)N[C@@H](Cc5ccccc5)C(=O)NC5(C(=O)NCC(=O)NC6(C(=O)NCC(=O)N[C@@H](CCCCN)C(=O)NC7(C(=O)N[C@@H](CCCCN)C(=O)N[C@@H](CCCCN)C(=O)N[C@@H](CCCCN)C(=O)N[C@@H](CCCCN)C(N)=O)CCCC7)CCCCC6)CCCC5)CCCCC4)CCCC3)CCCCC2)CCCC1 (Ac-GF[Ac5c]G[Ac6c]K[Ac5c]G[Ac6c]F[Ac5c]G[Ac6c]GK[Ac5c]KKKK-NH2) , test system: Burkholderia pseudomallei.
> 45 µM

Write down the reported MIC of CC(=O)NCC(=O)N[C@@H](Cc1ccccc1)C(=O)NC1(C(=O)NCC(=O)NC2(C(=O)NC(CCCN)C(=O)NC3(C(=O)NCC(=O)NC4(C(=O)N[C@@H](Cc5ccccc5)C(=O)NC5(C(=O)NCC(=O)NC6(C(=O)NCC(=O)NC(CCCN)C(=O)NC7(C(=O)NC(CCCN)C(=O)NC(CCCN)C(=O)NC(CCCN)C(=O)NC(CCCN)C(N)=O)CCCCC7)CCCCC6)CCCCC5)CCCCC4)CCCCC3)CCCCC2)CCCCC1 (some centres undefined) (Ac-GF[Ac6c]G[Ac6c][ξOrn][Ac6c]G[Ac6c]F[Ac6c]G[Ac6c]G[ξOrn][Ac6c][ξOrn][ξOrn][ξOrn][ξOrn]-NH2) , test system: Burkholderia pseudomallei.
> 45 µM

Data origin, for the record: ChEMBL document CHEMBL3822432
